The following molecules are listed with their measured melting point values.
quantity-measured: melting point

* CCCN(CCC)C(=O)C(CCC(N)=O)NC(=O)C=Cc1ccco1 (stereo not drawn) | 152 to 153 °C
* COc1cc(CCCN2CCc3cc(OC)c(OC)cc3C2)ccc1NC(=O)c1cccc2c(=O)c3cccc(C)c3[nH]c12 | 174 °C
* O=c1c2c(Cc3ccsc3)n[nH]c2c2cccnc2n1-c1cccc(OC(F)(F)F)c1 | 247 to 251 °C

====

// reported melting point for each item listed
quantity-measured: melting point

• COC(=O)[C@@H]1C[C@@H](O)CN1S(=O)(=O)c1ccc(Cl)c(COc2cccc3c(C)cc(C)nc23)c1Cl = 100 °C
• CNC(=O)N1CCC(Oc2cccc(C(F)(F)F)c2)(c2ccccc2)CC1 = 124 to 127 °C
• CCC1(CC)C(=O)N(CCO)CC(C)(C)N1OC(C)(C)C#N = 80 to 82 °C
• CCOC(=O)c1cn(C2CC2)c2c(F)c(C)c(F)cc2c1=O = 177 to 179 °C
• CCOC(=O)C1CCn2c(cc3ccccc32)C1O (stereo unspecified) = 116 to 120 °C
• CCC(Oc1ccc(-n2c(C)nc3cc(C(F)(F)F)ccc32)cc1)C(=O)O (stereo unspecified) = 98 °C
• CCOC(=O)c1sc(-c2ccc3c(=O)n(CC(C)C)c(CNC(=O)OC(C)(C)C)c(-c4ccccc4)c3c2)nc1C = 201 to 202 °C
• COc1ccc(Br)c(CN(CC(F)(F)F)C(=O)OC(C)(C)C)c1 = 86 to 89 °C
• O=C(O)Cc1ccc(CNC(=O)C2Cc3ccccc3N2S(=O)(=O)c2ccc(-c3cccc(C(F)(F)F)c3)cc2)cc1 (stereo unspecified) = 90 °C
• COc1cc2c(cc1O)CC1c3c(cc(OC)c(O)c3-2)CCN1CC1CC1 (single isomer, unassigned; (+)) = 80 to 84 °C
• CC1(C)COc2ccc(Cl)cc21 = 64 to 66 °C
